Test system: mouse CB2 receptor (Mus musculus, UniProt P47936)
Construct: expressed in transfected cells; host or cells: HEK293
Sequence (P47936 whole entry): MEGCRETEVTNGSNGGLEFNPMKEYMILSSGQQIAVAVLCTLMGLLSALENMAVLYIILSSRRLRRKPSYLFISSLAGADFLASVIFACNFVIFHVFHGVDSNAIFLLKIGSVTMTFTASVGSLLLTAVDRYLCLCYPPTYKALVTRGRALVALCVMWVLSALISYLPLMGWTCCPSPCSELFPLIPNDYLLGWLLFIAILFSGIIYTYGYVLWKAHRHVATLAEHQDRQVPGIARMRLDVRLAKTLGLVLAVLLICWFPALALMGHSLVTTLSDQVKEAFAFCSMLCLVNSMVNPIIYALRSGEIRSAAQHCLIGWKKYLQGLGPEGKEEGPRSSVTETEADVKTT
Test name: Radioligand competition binding, [3H]CP-55,940, membranes from HEK293 cells expressing mouse CB2
Particulars: ratio of Ki values, rCB1 over mCB2
// assign yes if rCB1/mCB2 falls strictly below 20, else no (ties count as no)

Compound | Qualitative label
CC(C)N(C(=O)c1ccc(O)cc1-c1c(O)cc(C2(CCCBr)CCCC2)cc1O)C(C)C [Compound 23c] | no
CCCCCCC1(c2cc(O)c3c(c2)oc(=O)c2ccc(O)cc23)CCCC1 | no
CCCCCCC(C)(C)c1cc(O)c2c(c1)oc(=O)c1ccc(O)cc12 [Compound 1b, reference compound] | no
CCCCCCC1(c2cc(O)c(-c3cc(O)ccc3C(=O)N(C(C)C)C(C)C)c(O)c2)CCCC1 [Compound 23d] | no
O=c1oc2cc(C3(CCCCBr)CCCC3)cc(O)c2c2cc(O)ccc12 | yes
CC(C)N(C(=O)c1ccc(O)cc1-c1c(O)cc(C2(CCCCBr)CCCC2)cc1O)C(C)C [Compound 23a] | no
N#CCCCCC1(c2cc(O)c3c(c2)oc(=O)c2ccc(O)cc23)CCCC1 | no
N#CCCCC1(c2cc(O)c3c(c2)oc(=O)c2ccc(O)cc23)CCCC1 | yes
CC(C)N(C(=O)c1ccc(O)cc1-c1c(O)cc(C2(CCCCCBr)CCCC2)cc1O)C(C)C [Compound 23b] | no

* * *

Measured melting point of individual entries
Readout name: melting point

Compound | Measured result
N#CCCCC1(c2cc(O)c3c(c2)oc(=O)c2ccc(O)cc23)CCCC1 | 118 to 120 °C
O=c1oc2cc(C3(CCCCBr)CCCC3)cc(O)c2c2cc(O)ccc12 | 96 to 98 °C
CC(C)N(C(=O)c1ccc(O)cc1-c1c(O)cc(C2(CCCCCBr)CCCC2)cc1O)C(C)C [Compound 23b] | 190 to 192 °C
N#CCCCCC1(c2cc(O)c3c(c2)oc(=O)c2ccc(O)cc23)CCCC1 | 138 to 140 °C
CC(C)N(C(=O)c1ccc(O)cc1-c1c(O)cc(C2(CCCCBr)CCCC2)cc1O)C(C)C [Compound 23a] | 183 to 185 °C
CC(C)N(C(=O)c1ccc(O)cc1-c1c(O)cc(C2(CCCBr)CCCC2)cc1O)C(C)C [Compound 23c] | 178 to 180 °C
CCCCCCC1(c2cc(O)c(-c3cc(O)ccc3C(=O)N(C(C)C)C(C)C)c(O)c2)CCCC1 [Compound 23d] | 185 to 187 °C
CCCCCCC1(c2cc(O)c3c(c2)oc(=O)c2ccc(O)cc23)CCCC1 | 153 to 155 °C

* * *

Test system: hCB2 receptor (Homo sapiens)
Sequence (P34972 whole entry): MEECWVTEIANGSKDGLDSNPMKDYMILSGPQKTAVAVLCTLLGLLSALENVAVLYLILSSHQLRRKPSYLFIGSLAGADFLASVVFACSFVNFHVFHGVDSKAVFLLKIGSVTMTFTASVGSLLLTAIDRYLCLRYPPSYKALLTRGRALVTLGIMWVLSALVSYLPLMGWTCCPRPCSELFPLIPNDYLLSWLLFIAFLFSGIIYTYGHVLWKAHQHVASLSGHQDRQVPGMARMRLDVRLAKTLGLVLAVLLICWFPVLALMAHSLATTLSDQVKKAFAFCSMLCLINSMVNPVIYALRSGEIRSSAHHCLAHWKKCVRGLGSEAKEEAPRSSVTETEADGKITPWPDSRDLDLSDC
Test name: cAMP assay: decrease in forskolin-stimulated cAMP in HEK293 cells stably expressing hCB2
Measured EC50 of individual entries
Readout name: EC50 (nM)

Compound | Readout name | Measured result
N#CCCCCCC1(c2cc(O)c3c(c2)oc(=O)c2ccc(O)cc23)CCCC1 [Compound 3f] | EC50 | 3.7
CCCCCCC(C)(C)c1cc(O)c2c(c1)oc(=O)c1ccc(OC)cc12 [Compound 1a] | EC50 | 10.5
CCCCCCC(C)(C)c1cc(O)c2c(c1)oc(=O)c1ccc(O)cc12 [Compound 1b, reference compound] | EC50 | 36.9
